molecular target: biotinylated labeled human GPC3 protein (produced in-house) (human, UniProt P51654 25-559, limits assumed, biotinylated (Dojindo, Cat. No. LK03); sites not stated); experiment: ELISA, biotinylated human GPC3 protein
recorded.metric: OD450 at 6.94 nM (OD450)
Write down the numeric answer in OD450 and omit the unit.

// known answers, use as guide
Just so you know, measured OD450 at 6.94 nM for hAb007LH1L1c (antibody, human IgG1, V domains shown, Humanized F3.81.19; VH H1 + VL L1c; expressed as human IgG1) VH: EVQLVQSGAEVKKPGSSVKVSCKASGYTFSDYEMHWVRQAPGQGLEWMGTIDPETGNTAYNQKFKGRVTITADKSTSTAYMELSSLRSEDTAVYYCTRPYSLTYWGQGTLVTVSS VL: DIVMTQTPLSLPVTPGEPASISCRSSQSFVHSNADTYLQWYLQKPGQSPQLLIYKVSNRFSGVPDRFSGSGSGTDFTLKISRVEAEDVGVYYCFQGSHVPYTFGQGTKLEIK came out at 1.45

Just so you know, measured OD450 at 6.94 nM for hAb007LH1L1e (antibody, human IgG1, V domains shown, Humanized F3.81.19; VH H1 + VL L1e; expressed as human IgG1) VH: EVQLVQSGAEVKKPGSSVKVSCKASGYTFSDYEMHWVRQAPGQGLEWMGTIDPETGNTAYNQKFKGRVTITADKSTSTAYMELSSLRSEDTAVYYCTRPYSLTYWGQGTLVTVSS VL: DIVMTQTPLSLPVTPGEPASISCRSSQSFVHSNVDTYLQWYLQKPGQSPQLLIYKVSNRFSGVPDRFSGSGSGTDFTLKISRVEAEDVGVYYCFQGSHVPYTFGQGTKLEIK came out at 1.17

Here's the next entry for you.
Just so you know, measured OD450 at 6.94 nM for hAb006LH3L1d (antibody, human IgG1, V domains shown, Humanized F3.38.7; VH H3 + VL L1d; expressed as human IgG1) VH: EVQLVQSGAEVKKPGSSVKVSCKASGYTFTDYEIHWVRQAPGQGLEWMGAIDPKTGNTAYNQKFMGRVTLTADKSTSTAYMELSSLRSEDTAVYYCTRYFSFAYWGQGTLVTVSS VL: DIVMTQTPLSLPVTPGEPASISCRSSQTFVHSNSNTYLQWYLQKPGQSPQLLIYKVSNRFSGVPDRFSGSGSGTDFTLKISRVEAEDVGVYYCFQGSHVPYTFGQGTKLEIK came out at 1.33

This collection of values is drawn from patent US20260116991A1.
